assay: Permeability through the monolayer of Caco-2 cells; format: in vitro ADME; details: human, B→A, 2 h at 37° C.
measured_endpoint: Papp B→A at 2 h, 10 μM (nm/s)

line_notation | obs_value
C=CC(=O)N1CCC[C@@H](n2nc(-c3ccc(Oc4ccncc4)cc3)c3c(N)ncc(C#N)c32)C1 | 120

[I] C=CC(=O)N1CCC[C@@H](n2nc(-c3ccc(C(=O)Nc4cc(C(F)(F)F)ccn4)cc3)c3cncc(Cl)c32)C1
[II] C=CC(=O)N1CCC[C@@H](n2nc(-c3ccc(Oc4ccncc4)cc3)c3cncc(C#N)c32)C1
Kindly identify which of I and II has the larger recorded Papp B→A at 2 h, 10 μM value. Write the label of whichever entry you select.
II

These entries and their values trace back to patent US20190352276A1.
